# EXPERIMENTAL SYSTEM: T1, SlmA (UniProt P0C093 1-198)
# T1 sequence: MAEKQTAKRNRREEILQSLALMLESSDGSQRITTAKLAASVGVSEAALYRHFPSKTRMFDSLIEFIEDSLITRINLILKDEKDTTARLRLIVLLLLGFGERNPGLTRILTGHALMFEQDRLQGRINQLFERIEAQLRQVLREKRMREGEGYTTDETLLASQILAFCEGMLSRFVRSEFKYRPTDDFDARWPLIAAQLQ
# ASSAY PROCEDURE: fluorescence anisotropy; 300 mM KCl, 2 mM MgCl2; apparent Kd, 4:1 model; dG 18.0 ± 0.2 kcal/mol; 50 mM Tris-HCl, 300 mM KCl, 2 mM MgCl2, pH 7.5, 20 C; 10 nM labeled SBS in SlmA anisotropy titrations
# RUN PARAMETERS: protein: recombinant; tags: SUMO tag cleaved off; chain copies: 4; label: fluorescein on T at position 27 from the 5' end of the antisense strand; blunt
MEASURED QUANTITY: Kd (nM)
Enter your answer as a number in nM; do not include the unit.

Query: Using the record for SBS17 (dsDNA) DNA 1: TCAACGTTAGTGACCATTTACTTACTTTTG DNA 2: CAAAAGTAAGTAAATGGTCACTAACGTTGA , report its Kd.
Result: 190
